- STUDY SYSTEM: GCN2 kinase (Homo sapiens, UniProt Q9P2K8)
- Sequence (Q9P2K8 whole entry): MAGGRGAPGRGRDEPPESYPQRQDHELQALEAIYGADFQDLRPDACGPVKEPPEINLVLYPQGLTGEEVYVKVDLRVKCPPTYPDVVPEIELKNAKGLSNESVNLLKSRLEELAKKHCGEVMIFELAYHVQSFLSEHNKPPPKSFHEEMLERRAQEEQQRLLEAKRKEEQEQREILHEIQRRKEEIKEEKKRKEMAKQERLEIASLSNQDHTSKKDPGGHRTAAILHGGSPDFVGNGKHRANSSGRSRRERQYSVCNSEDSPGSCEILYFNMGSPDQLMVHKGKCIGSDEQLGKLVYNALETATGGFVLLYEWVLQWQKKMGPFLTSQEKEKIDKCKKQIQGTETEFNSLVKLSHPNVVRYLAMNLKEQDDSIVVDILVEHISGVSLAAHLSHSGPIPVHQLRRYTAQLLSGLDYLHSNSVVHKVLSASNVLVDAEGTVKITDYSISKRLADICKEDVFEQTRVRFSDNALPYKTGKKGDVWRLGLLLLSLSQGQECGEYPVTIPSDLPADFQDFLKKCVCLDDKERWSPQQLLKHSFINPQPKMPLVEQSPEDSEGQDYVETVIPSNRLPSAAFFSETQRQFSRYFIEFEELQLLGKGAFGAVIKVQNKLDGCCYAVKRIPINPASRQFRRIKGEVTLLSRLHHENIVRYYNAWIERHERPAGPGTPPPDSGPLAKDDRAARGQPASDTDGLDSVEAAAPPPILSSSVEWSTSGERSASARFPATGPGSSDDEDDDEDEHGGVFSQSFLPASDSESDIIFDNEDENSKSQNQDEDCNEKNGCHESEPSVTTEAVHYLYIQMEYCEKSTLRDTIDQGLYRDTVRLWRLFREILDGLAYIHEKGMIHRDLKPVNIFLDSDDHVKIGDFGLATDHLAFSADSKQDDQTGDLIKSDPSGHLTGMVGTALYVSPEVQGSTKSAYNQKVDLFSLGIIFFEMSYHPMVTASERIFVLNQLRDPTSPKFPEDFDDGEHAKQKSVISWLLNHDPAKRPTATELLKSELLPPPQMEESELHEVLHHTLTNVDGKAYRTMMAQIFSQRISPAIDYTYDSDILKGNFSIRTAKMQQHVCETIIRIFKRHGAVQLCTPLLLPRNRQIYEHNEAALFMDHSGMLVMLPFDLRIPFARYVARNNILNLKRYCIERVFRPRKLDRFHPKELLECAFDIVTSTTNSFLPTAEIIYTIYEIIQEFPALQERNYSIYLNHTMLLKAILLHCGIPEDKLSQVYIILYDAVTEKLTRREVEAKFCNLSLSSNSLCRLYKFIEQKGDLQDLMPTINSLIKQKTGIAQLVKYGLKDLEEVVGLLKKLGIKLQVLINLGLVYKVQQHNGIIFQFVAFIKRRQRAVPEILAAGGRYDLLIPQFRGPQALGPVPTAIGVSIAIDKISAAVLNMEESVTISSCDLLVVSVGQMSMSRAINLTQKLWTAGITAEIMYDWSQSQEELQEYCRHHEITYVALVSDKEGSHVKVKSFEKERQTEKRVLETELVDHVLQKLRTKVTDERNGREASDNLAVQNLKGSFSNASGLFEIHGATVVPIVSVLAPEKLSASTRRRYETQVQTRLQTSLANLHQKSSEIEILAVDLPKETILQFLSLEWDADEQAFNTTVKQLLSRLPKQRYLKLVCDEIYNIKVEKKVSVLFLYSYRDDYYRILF
- METHOD: GCN2 enzyme inhibition assay (Transcreener ADP2 fluorescence polarization)
- Type: biochemical
- CONDITION SET: compounds of Formula II; 280 μM ATP, 4 nM GCN2 kinase
REPORTED PROPERTY: Ki

Reference set, count: 4
Query CC1C(CO)CCCN1c1cc(-c2cnc3ccc(C(F)F)nn23)ncn1 (single isomer, unassigned) [II-393] yields Ki of 10 to 1000 nM

Query Cc1cnc(N2CCCC(CNS(C)(=O)=O)C2)cc1-c1cnc2ccc(C(F)F)nn12 (centres unmarked) yields Ki of > 1000 nM

Query CS(=N)(=O)NC[C@@H]1CN(c2cc(-c3cnc4ccc(C(F)F)nn34)ncn2)CCO1 (some centres unmarked) yields Ki of 10 to 1000 nM

Query CC(=O)N1CCCC(c2cc(-c3cnc4ccc(C(F)F)nn34)ncn2)C1 (centres unmarked) yields Ki of 10 to 1000 nM

Others:
Query CCN1CCN(c2cc(-c3cnc4ccc(C(F)F)nn34)ncn2)C(C)C1CNS(C)(=O)=O (single isomer, unassigned) [II-543] yields Ki of 10 to 1000 nM

Query CS(=O)(=O)NCC1CCCN(c2cc(-c3cnc4ccc(C(F)F)nn34)cc(F)n2)C1 (centres unmarked) yields Ki of < 10 nM

Query CC1C(CN=S(C)(C)=O)CCCN1c1cc(-c2cnc3ccc(C(F)F)nn23)ncn1 (centres unmarked) [II-584] yields Ki of 10 to 1000 nM

Query FC(F)c1ccc2ncc(-c3cc(N4CCOC(Cn5cnnc5)C4)ncn3)n2n1 (centres unmarked) yields Ki of 10 to 1000 nM
